Reference source: ChEMBL document CHEMBL1811891

- System: Human immunodeficiency virus 1
- assay method text: microbe, parasite or virus in culture
- assay conditions: Human immunodeficiency virus 1, Ba-L
- Description: Antiviral activity against R5 tropic HIV1 Ba-L infected PBMC assessed as inhibition of viral p24 antigen expression
Below: a set of entries, each annotated with reported IC90.
Only the number, expressed in nM, is required.

Inquiry: Quick check: IC90 of `Cc1ccc(-c2ccc3c(c2)C=C(C(=O)Nc2ccc(C[N+](C)(C)C4CCOCC4)cc2)CCC3)cc1` ?
Reply text: 256

Inquiry: Quick check: IC90 of `CCCCN1C(=O)[C@H](CC2CCCCC2)NC(=O)C12CCN(Cc1ccc(Oc3ccc(C(=O)O)cc3)cc1)CC2` ?
Reply text: 171

Inquiry: Quick check: IC90 of `Cc1cn([C@H]2C[C@H](N=[N+]=[N-])[C@@H](CO)O2)c(=O)[nH]c1=O` ?
Reply text: 48

Inquiry: Quick check: IC90 of `CCCCN1C(=O)[C@@H]([C@H](O)C(C)C)NC(=O)C12CCN(Cc1ccc(Oc3ccc(C(=O)O)cc3)cc1)CC2.Cl` ?
Reply text: 591
